Assay: yeast display, Sf9 membrane polyspecificity reagent, FACS + sequencing; frameworks hold sequencing errors
reported-metric: polyreactivity (PSR sort gate)

{"input-sequence": "QVQLQESGRGLVQAGGSLRLSCAASGTISSRWGKGWYLQAPGKERELFASNDQGASTYYADSVKGRFTISRDNAKNTVYLQMNSLKPEDTEVYYCIAVPSSAGDYWGQGTQVTVSS", "polyreactivity (PSR sort gate)": "low polyreactivity"}
{"input-sequence": "QVQLVESGGGLVQAGGSLRLSCAASGYIFWSNTMGWYRQAPGKERELVAAISQSTASTYYADSVKGRFTISRDNAKNTVYLQMNSLKPEDTAVYYCAAYYNFGDYEYDYWGQGTQVTVSS", "polyreactivity (PSR sort gate)": "low polyreactivity"}
{"input-sequence": "QVQLVESGGGLVQAGGSLRLSCAASGSTFTAYAMGWYRQAPGKERELVADISDSGGSTYYADSVKGRFTISRDNAKNTVYLQMNSLKPEDTAVYYCAVDVRAYVVSKFDSWGQGTQVTVSS", "polyreactivity (PSR sort gate)": "low polyreactivity"}
{"input-sequence": "QVQLVESGGCLVPAGGSLRLSCAASGFIIDWYDMAWYRQAPGKERELVAAITRSAGRTYYADSVKGRFTISRDIAKITVYLQMNSLKPEDTAVYYCAARSSSAGGGDGYWGQGTQVTLSS", "polyreactivity (PSR sort gate)": "high polyreactivity"}
{"input-sequence": "QVQLVESGGGLVQAGGSLRLSCAASGSTFRYYAMGWYRQAPGKERELVAAINYSGGRTYYADSVKGRFTISRDNAKNTVYLQMNCVKPEDSAVYYCAADWSYLAVTDSTSDYDPNYGYWGQGTQVNVSS", "polyreactivity (PSR sort gate)": "high polyreactivity"}
{"input-sequence": "QVQLVESGGGVVQAGGSLRLSCAASGFIFSYNVMVWYRQAPGKERELVAAISSSGGSTYYADSVKGRFTISRDNAKNTAYLQMNSLKPEDTAVYYCATRVSRSFRAYDYWGQGTQVTVSS", "polyreactivity (PSR sort gate)": "high polyreactivity"}
{"input-sequence": "QVQLVESGAGLVQAGGSLRLSCAASGSTFPFYAMGWSRQAPGKERELVAAITSGGSTYADSVKGRFTISRDNAKNTVYLQMNSLKPEDTAVYYCNAEQNPSGLYDYRGVEGEMGYWGQGTQVTVSS", "polyreactivity (PSR sort gate)": "low polyreactivity"}
{"input-sequence": "QVQLVESGGGLVQAGGSLRLSCAASGYTFQYYTMGWYRQAPGKERELVAAISSSGGRTYYADSVKGRFTISRDNAKNTVYLQMNSLKPEDTAVYYCAATYSYRSDYYSWGQGTQVTVSS", "polyreactivity (PSR sort gate)": "high polyreactivity"}

-- ask Give its polyreactivity (PSR sort gate) value. Item: `QVQLVESCGGLVQAGGSLRLSCAASGSIFGWYAMGWYRQAPGKESELVAAISTSTGSTYYADSVKGRFTISRDNAKNTVYLQMNSLKPEDTAVYYCAVVVAGVFLWGVERYDYWGQGTQVTVSS`
-- reply low polyreactivity

-- ask Same question, `QVQHVESGGGLVQARGSLRLTCAASGLILSSNAMGWYRQAPGKERELVAAITWDGDRTYADSVKGRFTISRDNAKNTVYLQRNSLKPEDTAVYYCAADKQYYWYDWSYDYWGQGTQVTVSS` this time
-- reply low polyreactivity

-- ask Same question, `QVQLVESGGGLVQAGGSLRLSCAASGSIVVKYDMSWYRQAPGKERELVAAISGSGGSTYYADSVKGRFTISRDNAKNTVYLQMNSVKPEDTAVYYCAADDYFYSGRYGFEYWGQGTQVTVSS` this time
-- reply low polyreactivity

-- ask Same question, `QVQLVESGAGIVQAGGSLRLSCAASGRTFNWYAMGLYTQPPGKERELVAAITYPGGTTYYADSVKGRFTISRDNAKNTVYLQMNSLKPEDTAVYYCAATFRYRRVTPTTRFNYWGQGTQVTVSS` this time
-- reply high polyreactivity

-- ask Same question, `QVQLVESGGGLVQAGGSLRLSCAASGSIFYRYAMGWYRQAPGKERELVAAISRSGGRTYYADSVKGRFTISRDNAKNTVYLQMNSLKPEDTAVYYCAAESTVGTDLGGDSWGQGTQVTVSS` this time
-- reply high polyreactivity

-- ask Same question, `QVQLVESGGGLVQAGGSLRLSCAASGNIFQRYAMGWYRQAPGKERELVAAISYSGARTYYADSVKGRFTISRDNAKNTVYLQMNSLKPEDTAVYYCATYGGLTKFRLAYDYWGQGTQVTVSS` this time
-- reply high polyreactivity

-- ask Same question, `QVQLVESGGGLVQAGGSLRLSCAASGIIFSPYAMGRYRQAPGKERELVAAITYSGDTTYYADSVKGRFTISRDNAKNTVYLQMNSLKPEDTAVYYCAVEDAGQGGDYWGQGTQVTVSS` this time
-- reply low polyreactivity

-- ask Same question, `QVQLVESGGGLVQAGGSLRLSCADTGRIFTRYAMGWYRQAPGKERELVASIRSGGSTYYADSVKGRFTISRDNAKNTVYLQMNSLKPEDTAVYFCAKGTFDLHYRKRYNYWGQGTQVTVSS` this time
-- reply low polyreactivity

Source of measurements: the nanobody polyreactivity screen of Harvey et al. (2022)
